# compound, melting point
measured = [
    ("COc1cnc2[nH]cc(/C=C3\\N=C(NCC4CC4)NC3=O)c2c1", "280 to 286 °C"),
    ("Cc1cccc(C2SCCCS2)n1", "74 °C"),
    ("CCCOc1c(OC)cc(C=O)cc1S(=O)(=O)CCO", "111 to 112 °C"),
    ("COc1ccc2c(c1)C(C1CCC1)=NCC2", "44 to 46 °C"),
    ("Cc1c(NCc2ccccc2)cc2c(c1C)OCC2c1ccc(C(C)C)cc1 (configuration not stated)", "108 to 109 °C"),
    ("CCn1c(=O)c(C(=O)O)c(O)c2ccc(C)nc21", "162 to 165 °C"),
    ("CNc1nc(-c2cccc(NC(=O)c3ccnc(Cl)c3)c2)c2cc(OC)c(OC)cc2n1", "151 to 153 °C"),
    ("CCc1c(Oc2cc(C)cc(C)c2)[nH]c(=O)[nH]c1=O", "91 to 92 °C"),
    ("CC(=O)c1c(-c2ccc(O)cc2)oc2ccc(O)cc12", "243 to 251 °C"),
    ("CC(=O)N1CCC(C(=O)c2ccc(Cl)c(Cl)c2)CC1", "134 to 136 °C"),
    ("O=C(Nc1ccc(-n2ccnn2)c(F)c1)OCc1ccccc1", "121 to 122 °C"),
    ("OP(O)C(NC(c1ccccc1)c1ccccc1)c1ccco1 (configuration not stated)", "193 °C"),
    ("CCCCOc1cc2ccc(C(=O)O)cc2cc1OCCCC", "168 to 169 °C"),
    ("CC(Cc1ccc(O)cc1)N(CC(=O)c1ccccc1)Cc1ccc(OCc2ccccc2)c([N+](=O)[O-])c1 (configuration not stated)", "84 to 85 °C"),
    ("NC(=O)Cc1cccc(C(=O)c2ccccc2)c1N", "178 to 180 °C"),
    ("O=C(c1ccccc1)c1cc(Cl)ccc1-n1cnnc1", "182 to 184 °C"),
    ("CC1=C2OCOC2CC(C)(C)C1(O)C[Si](C)(C)C (configuration not stated)", "63 to 64.5 °C"),
    ("COc1cn(C(C)=O)c2ccc(F)cc12", "124 to 125 °C"),
    ("C=CCn1c(C)nc2c3c(c(C(=O)OCC)cc21)CCC1(Cc2ccccc2C1)N3", "150 °C"),
    ("CCC1c2cccn2-c2ccc(Cl)cc2N1C(=O)c1ccc(OC)cc1OC (configuration not stated)", "70 to 74 °C"),
    ("c1cnnc(N2CCN(CCCOc3ccc(C4=NCCO4)cc3)CC2)c1", "145 °C"),
    ("O=C1Nc2ccccc2C12COc1ccc3nonc3c12 (configuration not stated)", "> 220 °C"),
    ("CC(=NOCC(=O)O)c1ccc(NS(C)(=O)=O)c(Oc2ccc(F)cc2F)c1", "174 to 175 °C"),
    ("CCN(CC)CCN1c2cc(Cl)ccc2S[C@H]2[C@@H](O)[C@H](O)[C@@H](COC(C)=O)O[C@H]21", "180 °C"),
    ("COc1c(Cl)ccc(C(=O)O)c1F", "183 to 184 °C"),
    ("S=C1C[C@@H](SCc2ccccc2)CN1", "86 to 88 °C"),
    ("Cc1cc(O)cc2c1C(C)(C)CC2(C)C", "120 °C"),
    ("N[C@@H](Cc1c[nH]c2ccccc12)c1nc2c(C(F)(F)F)cccc2c(O)c1C(=O)Nc1nccs1", "190 °C"),
    ("OC(CCCl)COc1ccc(Br)cc1 (configuration not stated)", "75 to 78 °C"),
    ("COc1cc(OC)nc(C(O)(C(=O)NS(C)(=O)=O)c2ccccc2)n1 (configuration not stated)", "94 to 96 °C"),
    ("COc1ccc(OC)c(N2Cc3[nH]c(=O)[nH]c(=O)c3C2)c1", "308 to 310 °C"),
    ("COc1c(Cl)ccc(-c2cc(N)c(Cl)c(C(=O)NOCc3ccc(Cl)cc3)n2)c1F", "177 to 180 °C"),
    ("COC(=O)C(=O)c1ccc(OC/C=C/c2ccccc2)cc1", "80 to 82 °C"),
    ("O=C1c2nccc(Cl)c2C(=O)c2c(-c3ccccc3NC(=O)C(F)(F)F)ccnc21", "152 °C"),
    ("COc1cc(OC)nc(Oc2cccc(Oc3nc(OC)cc(OC)n3)c2CBr)n1", "127 °C"),
    ("O=C1c2ccccc2C(=O)N1CCCCCCN1CCC(c2nc(-c3ccncc3)c(-c3ccc(Cl)c(Cl)c3)[nH]2)CC1", "129 to 134 °C"),
    ("CCOC(=O)CCC(=O)N[C@@H](CC(C)C)C(=O)N[C@@H](C(C)C)[C@@H](O)c1c(-c2ccccc2)c1=O", "111 to 112 °C"),
]

----------
# molecule, melting point
rows = [
    ("CSCc1cc(O)cc2cc(-c3ccc(O)cc3)oc12", "188 to 190 °C"),
    ("CCOC(=O)NC1(c2cccs2)CCC2(CC1)OCCO2", "113 to 117 °C"),
    ("CCCC(CNc1nc(C)c(OC)c(C)n1)c1ccccc1 (stereo not drawn)", "31 to 33 °C"),
]

----------
# smiles.entry, melting point
data = [
    ("CCc1nc2nc3cc(Cl)ccc3nc2n1C(=O)c1ccccc1Br", "130 to 132 °C"),
    ("O=c1[nH]c2cc3nc(-c4ccncc4)[nH]c3cc2[nH]c1=O", "> 300 °C"),
    ("Cc1ccc(-c2nc(-c3ccc(C)cc3C)nc(-c3cc(C(C)(C)c4ccccc4)c(O)cc3O)n2)c(C)c1", "168 to 170 °C"),
    ("CC(=C(Cl)Cl)c1ccccc1Nc1ccccc1C", "49 to 51 °C"),
    ("Cc1cccc(CCOc2cccc(-c3cccc(C(=O)O)c3)n2)c1", "125 to 126 °C"),
    ("CC(=O)N(C(C)=O)c1c(OCc2ccccc2)cc(Br)cc1[N+](=O)[O-]", "148 °C"),
    ("Cn1cc(C(=O)O)c(=O)c2c3cc(N4CCC(O)(c5cccc(C(F)(F)F)c5)CC4)c(F)cc3ncc21", "300 °C"),
]

----------
# compound, melting point
rows = [
    ("COc1c(C)cc2ccccc2c1C(CC(=O)O)C(=O)O (centres undefined)", "159 °C"),
    ("CCOC(=O)C1(C(=O)OCC)CCC2(c3cc(OC)c(OC)cc3CCN2C(=O)CC)C(C2c3cc(OC)c(OC)cc3CCN2CC)C1 (centres undefined)", "138 °C"),
    ("COc1ccc2cnc3c(c2c1)NC(=O)CC3", "254 to 256 °C"),
    ("O=C(Nc1ccc2[nH]ncc2c1)O[C@@H](c1cc(F)cc(Cl)c1)[C@H]1CCCCN1", "220 °C"),
    ("CCS(=O)(=O)C(=CNc1ccc(NC=C(S(=O)(=O)CC)S(=O)(=O)CC)cc1)S(=O)(=O)CC", "265 to 268 °C"),
    ("CC=CCC(O)(C(=O)c1ccccc1)C(=O)c1ccc(C(C)C)cc1 (centres undefined)", "108 to 110 °C"),
    ("CCCCC(=O)NCc1ccc(I)cc1", "80 to 81 °C"),
    ("C[Si]1(CC(CN)CC(=O)O)CCCC1 (centres undefined)", "133 to 135 °C"),
    ("CC(=O)NC1CCN(Cc2ccc(CCn3cnc4cc(-c5ccc(Cl)cc5)sc4c3=O)cc2)C1 (centres undefined)", "196 to 198 °C"),
]

----------
# smiles.entry, melting point
data = [
    ("CCOP(=O)(NC(=O)c1cc(=O)c2ccccc2o1)OCC", "182 to 183 °C"),
    ("COC(=O)C(C)(C)CCCOc1cc(C)c(NS(=O)(=O)c2ccc(OC)cc2)cc1C", "90 to 92 °C"),
    ("O=C(O)C(CBr)(CBr)CBr", "83 to 86 °C"),
    ("N#Cc1ccc(N2CCC(CO)CC2)c2ccccc12", "135 to 136 °C"),
    ("CCOC(=O)CCNC(=O)CCNC(=O)c1csc(NC(=N)N)n1", "154 to 157 °C"),
]

----------
Recorded melting point values for a group of compounds are listed next.
value.type: melting point

# compound, value.measured
rows = [
    ("CCCn1nc2c(N)nc3c(c2c1CCCc1cc(-c2ccccc2)no1)CCCC3", "154 to 155 °C"),
    ("O=C(O)CCCCN(C(=O)c1ccc(Cl)cc1)c1cccc2ccccc12", "169 to 170 °C"),
    ("C=CC(C)OC(=O)c1c(C)nc2c(cnn2CCCCC)c1N (configuration not stated)", "64.6 to 67.2 °C"),
    ("COc1ccc(C)c(N2CCN(C(=O)Nc3cc4ccccc4nc3OC)CC2)c1", "128 to 130 °C"),
    ("CNC(=N[N+](=O)[O-])N(Cc1cnc(Cl)s1)C(=O)C(C)C", "101 to 104 °C"),
    ("COc1ccc(-c2cc(C)cn2-c2ccc(S(N)(=O)=O)cc2)cc1", "163 to 166 °C"),
    ("CCCCc1oc2ccccc2c1C(=O)NCc1ccc2c(-c3ccccc3)c(OCC#N)ccc2c1", "135 to 138 °C"),
    ("NC(=O)c1ccc(F)c2c1CC(N(CCCCc1c[nH]c3ccc(F)cc13)CC1CC1)CO2 (configuration not stated)", "115 °C"),
    ("COc1cc(OC)c2c(c1)Oc1cc(Br)ccc1CC2=O", "95 to 103 °C"),
    ("N#Cc1cc(CO)nc(C(=O)Nc2cccc(Cl)c2)c1", "167 °C"),
    ("CCOC(=O)C1C(c2ccc([N+](=O)[O-])cc2)CC(=O)N1C (configuration not stated)", "142 to 143 °C"),
    ("CC(C)c1ccc2cc(O)ccc2c1", "109 to 110 °C"),
    ("CCCN(CCC)C(=O)COc1nc(-c2ccccc2)nc(C)c1C", "88 to 89 °C"),
    ("O=c1ccc2cn(C3OC(CO)C(O)C3O)c(=O)[nH]c-2n1 (configuration not stated)", "189 to 190 °C"),
    ("O=C(Nc1ccc(-n2nc(C3CC3)cc2C2CC2)cc1)Nc1ccc2ncccc2c1", "102 to 104 °C"),
    ("CCOC(=O)CC(C)N=c1sc2ccc(Cl)cc2s1 (configuration not stated)", "60 to 61 °C"),
    ("C[C@@H](n1cnc2cc(N3CCN(C)CC3)c(F)cc2c1=O)[C@](O)(Cn1cncn1)c1ccc(F)cc1F", "106 to 112 °C"),
]
